# APPLIED CONDITIONS: 323.15 K; 101.33 kPa; Liquid; Concentric cylinders viscometry
Entries and their measured viscosity follow.
I only need the number, in mPa·s, no unit after it.

Solved cases (3 shown):
compound="CCCCCCCC[P+](CCCCCCCC)(CCCCCCCC)CCCCCCCC.[Br-] [tetraoctylphosphonium bromide]" reported_property=viscosity test_result=289.9
compound="CC(C)C[P+](C)(CC(C)C)CC(C)C.Cc1ccc(S(=O)(=O)[O-])cc1 [triisobutylmethylphosphonium p-toluenesulfonate]" reported_property=viscosity test_result=436.2
compound="CCCC[P+](CC)(CCCC)CCCC.CCOP(=O)([O-])OCC [tributylethylphosphonium diethylphosphate]" reported_property=viscosity test_result=73.4

Field: next compound
Field viscosity (entry CCCC[P+](C)(CCCC)CCCC.COS(=O)(=O)[O-] [tributylmethylphosphonium methyl sulfate] ) reads 300
